target: KMT9 (Homo sapiens, UniProt Q9Y5N5); assay: KMT9 thermal shift assay (SyproOrange); format: binding; details: 500 µM compound, 2 μM KMT9; read-out: Thermal shift (ΔTm)
quantity measured: ΔTm at 500 µM

compound	ΔTm at 500 µM
Nc1ncnc2c1ccn2[C@@H]1C[C@H](c2cccc(Cl)c2)[C@@H](O)[C@H]1O	≤ 10 °C
COc1cc([C@H]2C[C@@H](n3cc(Br)c4c(N)nc(Cl)nc43)[C@H](O)[C@@H]2O)ccn1	10 to 15 °C
CN1CCC[C@@H]([C@H]2C[C@@H](n3cc(-c4nc(Cc5ccccc5)cs4)c4c(N)nc(Cl)nc43)[C@H](O)[C@@H]2O)C1 [Compound 597S]	15 to 20 °C
NCCc1cccc([C@H]2C[C@@H](n3ccc4c(N)ncnc43)[C@H](O)[C@@H]2O)c1	≤ 10 °C

Inquiry: Fill in: ΔTm at 500 µM on KMT9 (Homo sapiens, UniProt Q9Y5N5), entry `NCc1cccc([C@H]2C[C@@H](n3ccc4c(N)ncnc43)[C@H](O)[C@@H]2O)c1`
Reply text: ≤ 10 °C

Inquiry: Fill in: ΔTm at 500 µM on KMT9 (Homo sapiens, UniProt Q9Y5N5), entry `CN(CCCNCCc1ccc(F)cc1)C[C@H]1C[C@@H](n2cc(-c3nc(Cc4ccccc4)cs3)c3c(N)nc(Cl)nc32)[C@H](O)[C@@H]1O`
Reply text: > 20 °C

Inquiry: Fill in: ΔTm at 500 µM on KMT9 (Homo sapiens, UniProt Q9Y5N5), entry `Cn1cc([C@H]2C[C@@H](n3ccc4c(N)nc(Cl)nc43)[C@H](O)[C@@H]2O)cn1`
Reply text: ≤ 10 °C

----------
Item-by-item account of ΔTm at 500 µM
Molecular target: KMT9 (Homo sapiens)
Sequence (Q9Y5N5 1-214): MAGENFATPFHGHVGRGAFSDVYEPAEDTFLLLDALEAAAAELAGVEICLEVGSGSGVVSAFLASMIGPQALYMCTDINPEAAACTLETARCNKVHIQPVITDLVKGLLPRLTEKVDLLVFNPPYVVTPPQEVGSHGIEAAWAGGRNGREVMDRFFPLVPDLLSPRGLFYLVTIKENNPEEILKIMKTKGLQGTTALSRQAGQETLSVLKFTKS
Sequence (Q9UI30 1-120 isoform Q9UI30-2 partner): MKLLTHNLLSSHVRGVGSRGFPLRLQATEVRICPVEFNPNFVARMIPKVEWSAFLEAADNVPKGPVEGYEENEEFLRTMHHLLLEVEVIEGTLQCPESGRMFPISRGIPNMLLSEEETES
Assay: KMT9 thermal shift assay (SyproOrange)
Type: binding
Settings: ΔTm; 500 µM compound, 2 μM KMT9, 5X SO; read-out: Thermal shift

Take a look at these entries with their results.
compound string	ΔTm at 500 µM
O[C@@H]1[C@@H](CNCCCNCCc2ccccc2)C[C@@H](n2cc(-c3nccs3)c3cnc(Cl)nc32)[C@@H]1O	15 to 20 °C
NC[C@H]1C[C@@H](n2cc3c4c(ncnc42)NCCCC3)[C@H](O)[C@@H]1O	≤ 10 °C
CNc1ncnc2c1ccn2[C@@H]1C[C@H](CSCCN)[C@@H](O)[C@H]1O	≤ 10 °C
O[C@@H]1[C@@H](CNCCCNCCc2ccccc2)C[C@@H](n2cc(-c3cc(Cc4ccccc4)cs3)c3cncnc32)[C@@H]1O	10 to 15 °C
C=Cc1cn([C@@H]2C[C@H](CN3CC(CNCCc4ccc(F)cc4)C3)[C@@H](O)[C@H]2O)c2ncnc(N)c12	15 to 20 °C
O[C@@H]1[C@H](O)[C@@H](C2CCNCC2)C[C@H]1n1cc(-c2ccn(Cc3ccccc3)n2)c2cnc(Cl)nc21	15 to 20 °C

Now for a further molecule.
Inquiry: For the molecule `O=S(=O)(c1ccccc1)n1ccc(-c2cn([C@@H]3C[C@H](CNCCCNCCc4ccccc4)[C@@H](O)[C@H]3O)c3ncncc23)n1` , give its measured ΔTm at 500 µM value.
Reply text: 10 to 15 °C

----------
Target: KMT9 (Homo sapiens, UniProt Q9Y5N5)
Sequence (Q9Y5N5 1-214): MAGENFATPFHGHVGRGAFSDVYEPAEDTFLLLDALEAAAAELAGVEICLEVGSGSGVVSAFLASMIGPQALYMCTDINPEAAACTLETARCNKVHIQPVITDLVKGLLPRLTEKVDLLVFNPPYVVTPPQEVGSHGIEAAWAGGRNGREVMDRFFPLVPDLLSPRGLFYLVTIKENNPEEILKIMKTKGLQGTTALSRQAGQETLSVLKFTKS
Sequence (Q9UI30 1-120 isoform Q9UI30-2 partner): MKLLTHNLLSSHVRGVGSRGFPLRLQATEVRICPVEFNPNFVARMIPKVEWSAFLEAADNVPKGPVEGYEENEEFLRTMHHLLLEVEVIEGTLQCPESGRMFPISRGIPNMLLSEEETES
Test: KMT9 thermal shift assay (SyproOrange)
Type: binding
Details: ΔTm; 500 µM compound, 2 μM KMT9, 5X SO; read-out: Thermal shift
quantity measured: ΔTm at 500 µM

Take a look at these entries with their results.
compound	quantity measured	val
CNc1ncnc2c1ccn2[C@@H]1C[C@H](CN2CCC23CCCNC3)[C@@H](O)[C@H]1O (stereo partly shown)	ΔTm at 500 µM	≤ 10 °C
CNc1ncnc2c1ccn2[C@@H]1C[C@H](CCCCCNCCc2ccccc2)[C@@H](O)[C@H]1O	ΔTm at 500 µM	10 to 15 °C
CNc1ncnc2c1ccn2[C@@H]1C[C@H](C#CCNCCc2ccccc2)[C@@H](O)[C@H]1O	ΔTm at 500 µM	≤ 10 °C

Now for a further compound.
Inquiry: For the compound `Nc1ncnc2c1c(-c1ccn(Cc3ccccc3)n1)cn2[C@@H]1C[C@H](CNCCCNCCc2ccccc2)[C@@H](O)[C@H]1O` , give its measured ΔTm at 500 µM value.
Reply text: 15 to 20 °C

----------
Item-by-item account of ΔTm at 500 µM
Biological target: KMT9 (Homo sapiens, UniProt Q9Y5N5)
Sequence (Q9Y5N5 1-214): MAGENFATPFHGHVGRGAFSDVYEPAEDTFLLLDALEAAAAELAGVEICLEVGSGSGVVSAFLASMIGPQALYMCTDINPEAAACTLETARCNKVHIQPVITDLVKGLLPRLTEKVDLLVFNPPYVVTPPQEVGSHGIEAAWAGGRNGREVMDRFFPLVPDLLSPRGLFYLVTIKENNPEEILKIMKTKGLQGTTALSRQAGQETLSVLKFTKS
Sequence (Q9UI30 1-120 isoform Q9UI30-2 partner): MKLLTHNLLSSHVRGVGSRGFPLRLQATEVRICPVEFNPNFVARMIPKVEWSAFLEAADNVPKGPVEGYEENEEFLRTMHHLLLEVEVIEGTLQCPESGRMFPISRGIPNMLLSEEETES
Assay: KMT9 thermal shift assay (SyproOrange)
Type: binding
Details: ΔTm; 500 µM compound, 2 μM KMT9, 5X SO; read-out: Thermal shift
Method: The assay was carried out in 96-well Hard-Shell PCR plates (Bio-Rad Laboratories Inc.). Assay buffer consisted of 50 mM BTP, 1 mM MgCl2 and 1 mM DTT at a pH of 8.5 (adjusted using 1 M HCl and 1 M NaOH). 20X inhibitor stock (in DMSO), 2X enzyme stock and 4X SyproOrange (SO) stock (both in assay buffer) were prepared. 1 μL of 20X compound, 4 μL of assay buffer, 10 μL of 2X KMT9 and 5 μL of 4X SO were pipetted. […] After every step, fluorescence was measured in FRET mode. […]

Take a look at these entries with their results.
compound	ΔTm at 500 µM
CNc1ncnc2c1ccn2[C@@H]1C[C@H](CN(CCCNCCc2ccc3ccccc3c2)CC(F)(F)F)[C@@H](O)[C@H]1O [377 (281)]	≤ 10 °C
Nc1ncnc2c1c(Br)cn2[C@@H]1C[C@H](C(=O)NCCCNCCc2ccccc2)[C@@H](O)[C@H]1O [452 (324)]	15 to 20 °C
Nc1ncnc2c1c(Br)cn2[C@@H]1C[C@H](CNCCCNCc2ccc(F)cc2)[C@@H](O)[C@H]1O [344 (248)]	15 to 20 °C
CNc1ncnc2c1ccn2[C@@H]1C[C@H](CNCCCNCCc2ccc(Oc3ccc(Cl)cc3)c(F)c2)[C@@H](O)[C@H]1O [370 (274)]	10 to 15 °C
CNc1ncnc2c1ccn2[C@@H]1C[C@H](CCCCNCCc2ccccc2)[C@@H](O)[C@H]1O [423 (294)]	≤ 10 °C

Inquiry: For the compound Nc1ncnc2c1ncn2[C@@H]1O[C@H](C(=O)NCCCNCCc2ccc(Oc3ccccc3)cc2)[C@@H](O)[C@H]1O [297 (194)] , give its measured ΔTm at 500 µM value.
Reply text: ≤ 10 °C

Inquiry: For the compound CCC(=O)NCCNC[C@H]1O[C@@H](n2cnc3c(N)ncnc32)[C@H](O)[C@@H]1O [315 (216)] , give its measured ΔTm at 500 µM value.
Reply text: ≤ 10 °C
